Target: endogenous human UII receptor (Homo sapiens)
Sequence (Q9UKP6 whole entry): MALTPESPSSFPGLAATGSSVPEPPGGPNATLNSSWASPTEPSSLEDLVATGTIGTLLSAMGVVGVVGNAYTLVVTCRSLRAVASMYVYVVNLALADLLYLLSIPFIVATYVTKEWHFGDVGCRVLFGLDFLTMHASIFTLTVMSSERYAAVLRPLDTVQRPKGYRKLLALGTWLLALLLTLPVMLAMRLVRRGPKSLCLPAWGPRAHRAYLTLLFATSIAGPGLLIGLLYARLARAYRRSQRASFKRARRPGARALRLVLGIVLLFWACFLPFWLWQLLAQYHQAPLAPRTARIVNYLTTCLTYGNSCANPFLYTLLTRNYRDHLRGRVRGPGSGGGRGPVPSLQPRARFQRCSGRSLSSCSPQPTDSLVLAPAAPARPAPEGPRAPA
Assay: Human Radioligand Binding Assay ((^125I)-U-II binding to human skeletal muscle myoblasts)
readout: Ki

Consider the worked cases shown below.
* COc1ccc([C@@H](CCCNC(=O)c2ccc(S(N)(=O)=O)n2C)N2C(=O)c3cccc(N4CCN([C@H](C)c5ccccc5)CC4)c3C2=O)cc1OC | > 200 nM
* CCN1CCN(c2cccc3c2C(=O)N(C(c2cccc(NCc4ccccc4)c2)c2ccc(OC)c(OC)c2)C3=O)CC1 (stereo not drawn) | > 300 nM

Let us examine a further case.
Q: Report Ki for `COc1ccc([C@@H](CCCNC(=O)[C@@H]2CCCN2C)N2C(=O)c3cccc(N4CCN([C@H](C)c5ccccc5)CC4)c3C2=O)cc1OC` please.
A: 69 nM
